Entries and their pIC50 values follow.
studyTarget: Heat shock protein HSP 90-alpha (Homo sapiens)
protocolNotes: Inhibition of HSP90-alpha (unknown origin) expressed in Escherichia coli BL21 assessed as reduction in ATPase activity in presence of PEP, NADH and ATP by pyruvate kinase/lactic dehydrogenase based coupled enzyme assay
pIC50 is a log-scale quantity: -log10 of the concentration expressed in molar.

Below, 3 molecules whose answers are already recorded.
{"substanceSmiles": "COc1ccc(-c2cn(Cc3cc(C(F)(F)F)cc(C(F)(F)F)c3)nn2)cc1", "pIC50": 5.21}
{"substanceSmiles": "COc1cc(-c2cn(Cc3ccc(C(C)(C)C)cc3)nn2)cc(OC)c1OC", "pIC50": 5.57}
{"substanceSmiles": "CC(C)(C)c1ccc(Cn2cc(-c3ccc(O)cc3[N+](=O)[O-])nn2)cc1", "pIC50": 5.77}

Please report the measured pIC50 for "COc1ccc(-c2cn(Cc3ccc(C(C)(C)C)cc3)nn2)cc1"
5.25

Please report the measured pIC50 for "CC(C)(C)c1ccc(Cn2cc(-c3ccc(O)cc3)nn2)cc1"
5.89

###

studyTarget: Heat shock protein HSP 90-beta (Homo sapiens, UniProt P08238)
Sequence (P08238 whole entry): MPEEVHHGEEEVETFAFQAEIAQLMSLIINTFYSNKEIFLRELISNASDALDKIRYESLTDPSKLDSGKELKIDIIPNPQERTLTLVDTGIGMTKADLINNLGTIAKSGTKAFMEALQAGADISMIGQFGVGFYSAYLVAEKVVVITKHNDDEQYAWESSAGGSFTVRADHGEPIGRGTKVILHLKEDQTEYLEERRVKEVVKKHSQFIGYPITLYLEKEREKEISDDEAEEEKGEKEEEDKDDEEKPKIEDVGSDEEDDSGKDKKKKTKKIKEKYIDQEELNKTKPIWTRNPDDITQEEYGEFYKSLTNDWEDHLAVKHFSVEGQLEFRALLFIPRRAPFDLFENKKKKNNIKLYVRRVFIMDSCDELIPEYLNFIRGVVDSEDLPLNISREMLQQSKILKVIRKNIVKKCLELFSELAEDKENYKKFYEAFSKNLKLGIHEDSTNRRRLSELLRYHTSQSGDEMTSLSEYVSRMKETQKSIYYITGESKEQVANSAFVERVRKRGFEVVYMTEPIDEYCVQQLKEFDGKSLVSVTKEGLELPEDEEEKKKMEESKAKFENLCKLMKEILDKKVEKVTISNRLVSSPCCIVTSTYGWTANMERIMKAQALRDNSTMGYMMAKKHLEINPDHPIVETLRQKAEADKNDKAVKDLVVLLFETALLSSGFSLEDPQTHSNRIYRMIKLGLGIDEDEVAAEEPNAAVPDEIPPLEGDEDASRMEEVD
protocolNotes: Inhibition of HSP90-beta (unknown origin) expressed in Escherichia coli BL21 assessed as reduction in ATPase activity in presence of PEP, NADH and ATP by pyruvate kinase/lactic dehydrogenase based coupled enzyme assay
Entries and their pIC50 values follow.
pIC50 is a log-scale quantity: -log10 of the concentration expressed in molar.

{"substanceSmiles": "CC(C)(C)c1ccc(Cn2cc(-c3ccc(O)cc3)nn2)cc1", "pIC50": 5.74}

Please report the measured pIC50 for "CC(C)(C)c1ccc(Cn2cc(-c3cc(O)c(O)c(O)c3)nn2)cc1"
6.74

Please report the measured pIC50 for "COc1cc(-c2cn(Cc3ccc(C(C)(C)C)cc3)nn2)cc(OC)c1OC"
5.57

Please report the measured pIC50 for "CC(C)(C)c1ccc(Cn2cc(-c3ccc(O)cc3[N+](=O)[O-])nn2)cc1"
5.77

###

Entries and their pIC50 values follow.
Tested on: CNE-2
protocolNotes: Cytotoxicity in human CNE-2 cells assessed as reduction in cell viability incubated for 48 hrs by MTT assay
Type: cell-based
experimentalConditions: CNE-2, 48 h
pIC50 is a log-scale quantity: -log10 of the concentration expressed in molar.

Below, 3 compounds whose answers are already recorded.
{"substanceSmiles": "COc1ccc(-c2cn(Cc3ccc(C(C)(C)C)cc3)nn2)cc1", "measurement": 5.40}
{"substanceSmiles": "C=CCNC1=C2C[C@@H](C)C[C@H](OC)[C@H](O)[C@@H](C)/C=C(\\C)[C@H](OC(N)=O)[C@@H](OC)/C=C\\C=C(/C)C(=O)NC(=CC1=O)C2=O", "measurement": 5.52}
{"substanceSmiles": "CC(C)(C)c1ccc(Cn2cc(-c3ccc(O)cc3N)nn2)cc1", "measurement": 5.80}

Please report the measured pIC50 for "CC(C)(C)c1ccc(Cn2cc(-c3cc(O)c(O)c(O)c3)nn2)cc1"
7.40

Please report the measured pIC50 for "COc1ccc(-c2cn(Cc3cc(C(F)(F)F)cc(C(F)(F)F)c3)nn2)cc1"
4.85

Please report the measured pIC50 for "CC(C)(C)c1ccc(Cn2cc(-c3ccc(O)cc3[N+](=O)[O-])nn2)cc1"
5.80
